Cited source for all entries: PubChem BioAssay AID330

Each record here notes measured T/C.
Tested on: P388 leukemia ip, CD2F1 mice, survival T/C
Test: NCI In Vivo Anticancer Drug Screen. Data for tumor model P388 Leukemia (intraperitoneal) in CD2F1 (CDF1) mice
Conditions: endpoint: median survival time; dose: 30.0 mg/kg/injection; schedule: Q01DX005 (ip); vehicle: saline with Tween-80; higher = longer survival
Toxic doses and inconclusive results are not listed.

Solved entries:
# MOLECULE, T/C
measured = [
    ("Cc1cc(N=[N+]=[N-])c2cc(F)ccc2n1", "92 % of control"),
    ("Cc1ccnc(NC(=O)Nc2cc(F)ccc2F)c1", "87 % of control"),
    ("CCCCCCCCOc1ccc(/C=C/C(C)=N/NC(N)=NC)cc1OC", "102 % of control"),
    ("O=C(Cc1ccc(OCc2ccccc2)cc1)NCc1ccc2c(c1)OCO2", "91 % of control"),
    ("COc1cccc(/C=N\\NC(=O)CNC(=O)Nc2ccc(Cl)c(Cl)c2)c1OC", "88 % of control"),
    ("CC(C)(C)[OH+][O-].[O-]c1ccc(Cl)cc1C=Nc1ccc(Cl)cc1[O-].[O]=[V]", "100 % of control"),
    ("O=C(Nc1cc(-c2ccccc2)[nH]n1)c1ccccc1F", "97 % of control"),
]

The recorded T/C for O=C(CC(=O)c1ccc(Cl)s1)C(=O)NC1C2CC3CC(C2)CC1C3 (stereo not drawn) is 100 % of control

----------
Some molecules, each annotated with its measured T/C.
Test system: P388 leukemia ip, CD2F1 mice, survival T/C
Experiment: NCI In Vivo Anticancer Drug Screen. Data for tumor model P388 Leukemia (intraperitoneal) in CD2F1 (CDF1) mice
Conditions: endpoint: median survival time; dose: 100.0 mg/kg/injection; schedule: Q04DX002 (ip); vehicle: saline with Tween-80; higher = longer survival
Inconclusive results and toxic doses are left out.

Reference set, count: 5
# MOLECULE, REPORTED PROPERTY, RECORDED VALUE
data = [
    ("CCCCCCCCCCCCN1CN=C(N)N(C#N)C1", "T/C", "92 % of control"),
    ("COc1cc2c(cc1OC)C13CCC(O)CC1=CC2(C)O3 (centres undefined)", "T/C", "96 % of control"),
    ("CC(C)(C)OC(=O)c1ccc(C(=O)OC(C)(C)C)cc1", "T/C", "97 % of control"),
    ("COC(=O)c1c(-c2ccc(OC)c(OC)c2)c(C=O)n(C)c1C", "T/C", "99 % of control"),
    ("CC(=Nc1c(C)noc1/C=C/c1ccccc1)NO", "T/C", "87 % of control"),
]

Reported T/C ( NC1=NC(=O)C(N=O)C(=O)N1 (centres undefined) ) = 99 % of control

Sure, the documented T/C for CC(=O)Nc1nc(=O)c2c(n1C(C)=O)N(C(C)=O)C(=O)C2 is 103 % of control

According to the records, this molecule O=c1c(CN(CCO)CCO)c(-c2ccccc2)sc2ccccc12 displays T/C of 91 % of control

What the record says about Cc1nc2[nH]c(=O)ccc2c(C)c1N : T/C is 100 % of control

----------
System: P388 leukemia ip, CD2F1 mice, survival T/C
Test: NCI In Vivo Anticancer Drug Screen. Data for tumor model P388 Leukemia (intraperitoneal) in CD2F1 (CDF1) mice
Details: endpoint: median survival time; dose: 50.0 mg/kg/injection; schedule: Q04DX002 (ip); vehicle: saline with Tween-80; higher = longer survival
Procedure: The antitumor activity of compounds was measured in mice bearing transplantable tumors. Survival or tumor size were measured and the results are expressed as the measurement made in the treated group (T) divided by the measurement made in the vehicle treated control group (C). The tumor model used in this assay is P388 Leukemia (intraperitoneal) in CD2F1 (CDF1) mice
Inconclusive results and toxic doses are left out.
REPORTED PROPERTY: T/C

# COMPOUND, TARGET ENTITY, RECORDED VALUE
records = [
    ("CCCCc1c2cnccc2c(CCCC)c2c1[nH]c1ccccc12", "P388 leukemia ip, CD2F1 mice, survival T/C", "100 % of control"),
]

# lookup: Nc1[nH]c(=O)ncc1CS(=O)(=O)O on P388 leukemia ip, CD2F1 mice, survival T/C, T/C = 97 % of control

Item Cc1cccc(N=C(C2=C(O)c3ccccc3C2=O)c2ccccc2)c1 was tested on P388 leukemia ip, CD2F1 mice, survival T/C; the reported T/C is 97 % of control

Record for CC(=O)Nc1ccc(Nc2ccc(NCCO)c3c2C(=O)c2c(O)ccc(O)c2C3=O)cc1 under target or system P388 leukemia ip, CD2F1 mice, survival T/C: T/C reported as 96 % of control

Here O=C1CC2CCC1CC2c1cnc[nH]1 (stereo not given) was tested on P388 leukemia ip, CD2F1 mice, survival T/C, and its T/C came to 100 % of control

----------
System: P388 leukemia ip, CD2F1 mice, survival T/C
Assay: NCI In Vivo Anticancer Drug Screen. Data for tumor model P388 Leukemia (intraperitoneal) in CD2F1 (CDF1) mice
Details: endpoint: median survival time; dose: 100.0 mg/kg/injection; schedule: Q01DX005 (ip); vehicle: Klucel (hydroxypropylcellulose) (HPC); higher = longer survival
Toxic doses and inconclusive results are not listed.
T/C values by entry

These recorded examples may help you get a feel for the data.
# COMPOUND, T/C
measured = [
    ("CC1(C)CC(=O)c2c(oc3ccc(O)cc23)C1", "97 % of control"),
    ("C=CCOc1ccc(-c2ccccc2)cc1Br", "102 % of control"),
    ("C1CN2CCO[Si](CC[Si]34OCCN(CCO3)CCO4)(O1)OCC2", "113 % of control"),
    ("CC(C)(C)c1ccc(/C=N/NC(=O)c2cccnc2)cc1", "103 % of control"),
    ("[CH3][Sn]([CH3])([n]1cc(CC(=O)O)c2ccccc21)[n]1cc(CC(=O)O)c2ccccc21", "108 % of control"),
]

# T/C (compound: N#Cc1nnn(-c2ccc(Cl)cc2)c1N ) is 97 % of control

Note to self: T/C recorded for CC1(C)C(=O)/C(=C/c2ccccc2N)Cc2ccccc21 was 107 % of control

Notebook: CC1(C)C(=O)c2cc(Cl)ccc2C1(C)C , T/C read as 102 % of control

Lookup result for CC(=O)Nc1ccc2c(c1)nc(-c1ccccn1)n2CCc1ccccn1 ; measured T/C: 102 % of control

GET /value?item= O=C(Oc1ccccc1)c1ccc([N+](=O)[O-])cc1 &field=T/C returns 101 % of control

----------
System: P388 leukemia ip, CD2F1 mice, survival T/C
Experiment: NCI In Vivo Anticancer Drug Screen. Data for tumor model P388 Leukemia (intraperitoneal) in CD2F1 (CDF1) mice
Conditions: endpoint: median survival time; dose: 60.0 mg/kg/injection; schedule: Q01DX005 (ip); vehicle: saline
Toxic doses and inconclusive results are not listed. Rule for the calls: active = survival T/C of 150% or more; inactive = T/C below 125% in these data.
# output must be one of True for active, False for inactive

Some entries whose results are on file:
# COMPOUND, TARGET ENTITY, CLASSIFICATION
rows = [
    ("COc1ccc(C(=O)Cc2nc3nnc(NC(=O)Nc4ccc(Cl)cc4)n3nc2CC(=O)c2ccc(OC)cc2)cc1", "P388 leukemia ip, CD2F1 mice, survival T/C", "False"),
    ("O=C(NO)/C(CC(=O)c1cccc(O)c1)=N\\O", "P388 leukemia ip, CD2F1 mice, survival T/C", "False"),
    ("COP(=O)(CC(=O)CCCCCO)OC", "P388 leukemia ip, CD2F1 mice, survival T/C", "False"),
    ("COc1ccc2c(C)cc(=O)oc2c1OCC(O)CN1CCOCC1 (configuration not stated)", "P388 leukemia ip, CD2F1 mice, survival T/C", "False"),
    ("CCOC(=O)/C(NC(=O)c1ccccc1)=C(\\NC(=O)c1ccccc1)C(=O)OCC", "P388 leukemia ip, CD2F1 mice, survival T/C", "False"),
]

In this assay, the call recorded for C=CC(C(=C)C(=O)OC)c1ccccc1 (configuration not stated) was what?
False

Which result was noted for this compound in the test: N#CCCP(=O)(O)CCC#N
False

What classification did CCC(=O)Nc1c(O)c(Br)c(NC(=O)CC)c(O)c1Br end up with in this test?
False

Record lookup: outcome of this test for N[C@H]1c2ccsc2C(=O)[C@H]1O ?
True

What did this assay record as the result for C#CCNC1=CC(=O)CCC1 ?
False

Write down the call the test reported for this compound. Item: COc1ccc(/C=N/N2CN(C(C)C(=O)O)C(C)(O)N=C2N)cc1OC (configuration not stated)
False

Give the logged outcome of this assay for the following compound: [N-]=[N+]=NCCOCn1ccc(=O)[nH]c1=O
False
